Provenance of the data: patent US8071642B2

# Test system: PAM 212 keratinocytes
# run description: Photo-induced growth inhibition assay against PAM 212 keratinocytes (UVA activated)
# Type: cell-based
# conditions: 1.28 J/cm^2 UVA (320-400 nm), cells counted after 4-5 days of growth, read-out: IC50 (concentration at which photoactivated test compound inhibited growth by 50%)
Where a name gives a salt, the structure may show the parent alone.
assay readout: IC50 (µM)
The response must be a number in µM with no trailing unit.

Could you share which IC50 value was measured for CN(C)CCOc1c2c(cc3ccc(=O)oc13)CCO2 [Formula I R=H, R1=H, A-B=—CH2—CH2—, hydrochloride salt] ?
13
